Target: SMCR7L
Experiment: pooled miR-30 sensor sort-seq; sequence = guide strand; also: reference of the scale not given here
Conditions: shRNA
attribute-measured: sensor-assay potency score (higher = more potent)
Please give the numeric answer without any surrounding text.

Report sensor-assay potency score (higher = more potent) for TTCTACTCCAGGAACCGTGGTC please.
0.223

Same question, TTGCTCTAAGGCCACATCCTAG this time
-1.5

Subsequent entry: TATGTCCACAGCAGCTTGCTTG
-1.35

Now this one: TAAGTAGCTGATAAGTCCCCTC
-0.665

Can you handle TACATTGCAATAAATACTGCAA next?
0.27

Moving on to the next sequence: AAACATGCTATCACAGCTCTTC
0.268

Field entry: TTAAACATTCCTCCCCACCTTC
-0.361

Follow-up item: TTGCATTCAGCTTATCCTGTGT
0.0334

Thanks! And TAGCCAAGTGTATCTAACGGAG ?
-1.24

---

Molecular target: GLI3
Assay: pooled miR-30 sensor sort-seq; sequence = guide strand
Conditions: shRNA
attribute-measured: sensor-assay potency score (higher = more potent)
Provide a numeric answer; units are not to be included.

Which sensor-assay potency score (higher = more potent) is listed for TTTCGTGTCTTGCTGACTGAAG ?
-0.362

Try this sequence too: TTTGGTCATAGAACTGACCAGA
-0.608

Continue with TTGTCGGCTTAGGATCTGCTGA
-0.967

Same lookup for TTGTGTCACTGAGCTGTCCTGA , please.
-0.401

Note, next up: TTGAGAATCGTGACCAAGGAGT
-0.494

How about this sequence: TTTTTCTTTTCAGTGGTCGTGG
0.0526

Next sequence up: TTGATCTTGGACCTCTTGTTGT
-0.765

And TCTGATGATAGTATTCTGCTGG ?
0.381

---

Target: ABCG2
Test: pooled miR-30 sensor sort-seq; sequence = guide strand
Details: shRNA
Each entry gets Condition not met if its sensor-assay potency score (higher = more potent) stays under -0.4, and Condition met if its sensor-assay potency score (higher = more potent) is -0.4 or above.

# bool: sensor-assay potency score (higher = more potent) of TAATATTTCTTTCTCAACTGGT >= -0.4
Condition met

Record: TGAGATTGACCAACAGACCTGA
Condition met

Please give the result for AACATCATCTTGTACCACGTAA too.
Condition not met

Follow-up entry: TTCTATGAGTGGCTTATCCTGC
Condition not met

Would you mind doing TTCAGCTTTTGTCTCTTTGTAG as well?
Condition met

Same question for TTTAAAGTCTTCTTCTCTGTTT please.
Condition met

Cool, now TATAATACTTGGTAACATCCTC
Condition met

Same for TACGACTGTGACAATGATCTGA
Condition met

---

Target: COX6B2
Experiment: pooled miR-30 sensor sort-seq; sequence = guide strand
Details: shRNA
Assign condition met to entries whose sensor-assay potency score (higher = more potent) meets or exceeds -0.6; assign condition not met to the rest.

Can TTACGGATCTGGTTCTGGCTGG be said to have sensor-assay potency score (higher = more potent) at or above -0.6?
condition met

Same again, this time with TACGGATCTGGTTCTGGCTGGG
condition met

And what about the sequence TTCCAGCTCTCCACCCAGCTGA ?
condition not met

Now the sequence TACACGCGGAAATAGTACTCGC
condition not met

How about this sequence: TAGTACTCGCAGGGCTGCGTGC
condition not met

Consider next the sequence TTGATCTGCTCGTTCCAGCTCT in the same way.
condition met

Check TCGTTCCAGCTCTCCACCCAGC too.
condition not met

Cool, now TCCCGTTCTTGATCTGCTCGTT
condition met
